B1: glmS ribozyme (parent)
chain: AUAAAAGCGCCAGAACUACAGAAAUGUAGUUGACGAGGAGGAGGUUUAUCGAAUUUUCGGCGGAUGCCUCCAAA

Variants of: B1
TEST NAME: self-cleavage kobs at 160 uM GlcN6P; higher = faster cleavage; RNA array
TEST PARAMETERS: with glucosamine-6-phosphate
Fewer inactive variants are shown than the library holds.
PROPERTY: self-cleavage kobs at 160 uM GlcN6P

Consider the worked cases shown below.
MUTANT NAME | self-cleavage kobs at 160 uM GlcN6P
A12G U46G G59U | < 1e-05 s⁻¹
G40C U47G | 7.96e-05 s⁻¹

Would you mind giving self-cleavage kobs at 160 uM GlcN6P for every variant in the list below?
1. G7C A36G A39G C67U
2. G37A U47A

["< 1e-05 s⁻¹", "7.83e-05 s⁻¹"]

Hello, I would appreciate it if you could give self-cleavage kobs at 160 uM GlcN6P for each entry below.
1. U30A C67A
2. G7A A36U
3. A48C C71A
4. G32U G43U

1: 0.00014 s⁻¹; 2: < 1e-05 s⁻¹; 3: < 1e-05 s⁻¹; 4: < 1e-05 s⁻¹
